# Lookup of reported pka A (acidic pKa) keyed by entry
PROTOCOL: pKa, pI and % salt of peptidic buffers
Type: physicochemical
EXPERIMENTAL PARAMETERS: Table 2, first acidic pKa
Peptide text beside a SMILES is read from it.

{"COMPOUND": "CC(C)[C@H](NC(=O)[C@@H](N)Cc1c[nH]cn1)C(=O)O [His-Val] (H-His-Val-OH; N-terminus and C-terminus assumed)", "pka A (acidic pKa)": 3.18}
{"COMPOUND": "NCCCC[C@H](NC(=O)[C@@H](N)Cc1c[nH]cn1)C(=O)O [His-Lys] (H-His-Lys-OH; N-terminus and C-terminus assumed)", "pka A (acidic pKa)": 3.05}
{"COMPOUND": "N[C@@H](CO)C(=O)N[C@@H](Cc1c[nH]cn1)C(=O)O [Ser-His] (H-Ser-His-OH; N-terminus and C-terminus assumed)", "pka A (acidic pKa)": 2.42}

----------
PROTOCOL: pKa, pI and % salt of peptidic buffers
Assay type: physicochemical
EXPERIMENTAL PARAMETERS: Table 2, second basic pKa
Peptide text beside a SMILES is read from it.
The entries below are paired with their reported pka B (basic pKa).

{"COMPOUND": "N[C@@H](Cc1c[nH]cn1)C(=O)N[C@@H](CC(=O)O)C(=O)O [His-Asp] (H-His-Asp-OH; N-terminus and C-terminus assumed)", "pka B (basic pKa)": 8.19}
{"COMPOUND": "N[C@@H](CCC(=O)O)C(=O)N[C@@H](Cc1c[nH]cn1)C(=O)O [Glu-His] (H-Glu-His-OH; N-terminus and C-terminus assumed)", "pka B (basic pKa)": 8.20}
{"COMPOUND": "NC(=O)C[C@H](NC(=O)[C@@H](N)Cc1c[nH]cn1)C(=O)O [His-Asn] (H-His-Asn-OH; N-terminus and C-terminus assumed)", "pka B (basic pKa)": 7.80}
{"COMPOUND": "NCCCC[C@H](NC(=O)[C@@H](N)CCC(=O)O)C(=O)O [Glu-Lys] (H-Glu-Lys-OH; N-terminus and C-terminus assumed)", "pka B (basic pKa)": 11.07}
{"COMPOUND": "N[C@@H](Cc1c[nH]cn1)C(=O)N1CCC[C@H]1C(=O)O [His-Pro]", "pka B (basic pKa)": 7.80}
{"COMPOUND": "N=C(N)NCCC[C@H](N)C(=O)N[C@@H](CC(=O)O)C(=O)O [Arg-Asp] (H-Arg-Asp-OH; N-terminus and C-terminus assumed)", "pka B (basic pKa)": 12.50}
{"COMPOUND": "O=C(O)[C@H](Cc1c[nH]cn1)NC(=O)[C@@H]1CCCN1 [Pro-His]", "pka B (basic pKa)": 9.10}

----------
PROTOCOL: Conductivities and solubilities of selected multipeptides at their pI
Assay type: physicochemical
EXPERIMENTAL PARAMETERS: at pI
Peptide text beside a SMILES is read from it.
Listed compounds paired with reported Solubility

{"COMPOUND": "NCCCC[C@H](N)C(=O)N[C@@H](CC(=O)O)C(=O)O [Lys-Asp] (H-Lys-Asp-OH; N-terminus and C-terminus assumed)", "Solubility [mM]": 1000}
{"COMPOUND": "CC(C)[C@H](N)C(=O)N[C@@H](Cc1c[nH]cn1)C(=O)O [Val-His] (H-Val-His-OH; N-terminus and C-terminus assumed)", "Solubility [mM]": 200}
{"COMPOUND": "NCCCC[C@H](N)C(=O)N[C@@H](CCC(=O)O)C(=O)O [Lys-Glu] (H-Lys-Glu-OH; N-terminus and C-terminus assumed)", "Solubility [mM]": 500}
